Test: Equilibrium solubility of azithromycin forms in granulating liquids (HPLC-UV)
Details: 48 hours, EtOH 33% in water v/v
Please respond with reported solubility for every item in the list.

Prompt line: Requested field: solubility. Item: CCC1OC(=O)C(C)C(O[C@H]2C[C@@](C)(OC)[C@@H](O)C(C)O2)C(C)[C@@H](OC2OC(C)CC(N(C)C)[C@H]2O)[C@@](C)(O)C[C@@H](C)CN(C)[C@H](C)[C@@H](O)[C@]1(C)O (some centres unmarked) [form M]
Response line: 1.10 mgA/mL

Prompt line: Requested field: solubility. Item: CCC1OC(=O)C(C)C(O[C@H]2C[C@@](C)(OC)[C@@H](O)C(C)O2)C(C)[C@@H](OC2OC(C)CC(N(C)C)[C@H]2O)[C@@](C)(O)C[C@@H](C)CN(C)[C@H](C)[C@@H](O)[C@]1(C)O (some centres unmarked) [form F]
Response line: 1.06 mgA/mL

Prompt line: Requested field: solubility. Item: CC[C@H]1OC(=O)[C@H](C)[C@@H](O[C@H]2C[C@@](C)(OC)[C@@H](O)[C@H](C)O2)[C@H](C)[C@@H](O[C@@H]2O[C@H](C)C[C@H](N(C)C)[C@H]2O)[C@](C)(O)C[C@@H](C)CN(C)[C@H](C)[C@@H](O)[C@]1(C)O [form N, azithromycin]
Response line: 1.11 mgA/mL

Prompt line: Requested field: solubility. Item: CCC1OC(=O)C(C)C(O[C@H]2C[C@@](C)(OC)[C@@H](O)C(C)O2)C(C)[C@@H](OC2OC(C)CC(N(C)C)[C@H]2O)[C@@](C)(O)C[C@@H](C)CN(C)[C@H](C)[C@@H](O)[C@]1(C)O (some centres unmarked) [form J]
Response line: 0.99 mgA/mL

Prompt line: Requested field: solubility. Item: CC[C@H]1OC(=O)[C@H](C)[C@@H](O[C@H]2C[C@@](C)(OC)[C@@H](O)[C@H](C)O2)[C@H](C)[C@@H](O[C@@H]2O[C@H](C)C[C@H](N(C)C)[C@H]2O)[C@](C)(O)C[C@@H](C)CN(C)[C@H](C)[C@@H](O)[C@]1(C)O [form A, reference compound]
Response line: 1.23 mgA/mL
